Molecular target: MMP-1 (Homo sapiens, UniProt P03956)
Sequence (P03956 100-469, species assumed): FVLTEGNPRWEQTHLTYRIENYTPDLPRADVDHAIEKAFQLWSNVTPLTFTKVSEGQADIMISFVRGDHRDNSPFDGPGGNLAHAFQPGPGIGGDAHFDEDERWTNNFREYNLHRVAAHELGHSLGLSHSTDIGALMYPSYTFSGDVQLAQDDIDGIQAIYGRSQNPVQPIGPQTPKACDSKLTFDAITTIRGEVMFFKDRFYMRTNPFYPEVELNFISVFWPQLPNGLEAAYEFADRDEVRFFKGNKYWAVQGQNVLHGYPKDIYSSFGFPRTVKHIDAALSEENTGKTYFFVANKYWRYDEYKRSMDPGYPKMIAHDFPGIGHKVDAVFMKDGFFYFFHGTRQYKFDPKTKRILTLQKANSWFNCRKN
Test: MMP-1 inhibitory action (Type I collagen Activity Measurement kit, FITC-labeled collagen type I)
Assay type: biochemical
Settings: Experimental Example 2; read-out: IC50 MMP1
pIC50: −log10 of the molar value.
Metric: pIC50

QUERY: Fill in the recorded pIC50 for this molecule, with MMP-1 (Homo sapiens, UniProt P03956) as test system: CC(=O)Nc1ccc(-c2ccc(S(=O)(=O)N[C@@]3(C(=O)O)C[C@]3(C)c3ccccc3)s2)cc1
RESULT: ≤ 5.00

QUERY: Similarly, CC1(c2cccc(Cl)c2)CC1(NS(=O)(=O)c1ccc(-c2cc(C(F)(F)F)on2)s1)C(=O)O (stereo not shown) ?
RESULT: > 6.00

QUERY: Similarly, CC1[C@H](c2ccccc2)[C@]1(NS(=O)(=O)c1ccc(-c2ccc(Cl)c(F)c2)s1)C(=O)O (stereo partly shown) ?
RESULT: > 6.00

QUERY: Similarly, O=C(NCCCC1(c2ccccc2)CC1(NS(=O)(=O)c1ccc(-c2ccc(Cl)cc2)s1)C(=O)O)OC1CCCC1 (stereo not shown) ?
RESULT: ≤ 6.00

QUERY: Similarly, CC1[C@H](c2ccccc2)[C@]1(NS(=O)(=O)c1ccc(-n2cc(I)cn2)s1)C(=O)O (stereo partly shown) ?
RESULT: > 7.00

QUERY: Similarly, O=C1CCCN1c1cccc(C2CC2(NS(=O)(=O)c2ccc(-c3cc(C(F)(F)F)on3)s2)C(=O)O)c1 (stereo not shown) ?
RESULT: ≤ 6.00

QUERY: Similarly, CCN(CC)CC1(c2ccccc2)CC1(NS(=O)(=O)c1ccc(-c2cc(C(F)(F)F)on2)s1)C(=O)O (stereo not shown) ?
RESULT: ≤ 5.00
